# System: Kochia (Kochia scoparia)
# run-description: Test A postemergence
# Type: in vivo
# study-conditions: 125 g ai/ha, postemergence; visual rating after approx. 10 d, 0 to 100 scale (0 no effect, 100 complete control)
measured-metric: Plant response rating, Kochia

- CN1CC(c2cccc(C(F)(F)F)c2)C(C(=O)Nc2cccc(C#N)c2F)C1=O (centres unmarked) [Compound 576]: 30
- CN1CC(c2cccc(OC(F)F)c2)C(C)(C(=O)Nc2cccc(F)c2F)C1=O (centres unmarked) [Compound 619]: 0
- O=C1NCC(c2cc(Cl)sc2Cl)C1C(=O)Nc1cccc(F)c1F (centres unmarked) [Compound 601]: 0
- Cc1ccc(C2CN(C)C(=O)C2C(=O)Nc2ccc(F)cc2F)cc1 (centres unmarked) [Compound 664]: 60
- Cc1ccc(C2CN(C)C(=O)C2C(=O)Nc2ccc(F)cc2F)c(F)c1 (centres unmarked) [Compound 559]: 30
- CN1CC(c2ccc(F)c(C(F)(F)F)c2)C(C(=O)Nc2ccccc2S(C)(=O)=O)C1=O (centres unmarked) [Compound 612]: 20
- CN1CC(c2ccc(F)c(F)c2)C(C(=O)Nc2ccccc2S(C)(=O)=O)C1=O (centres unmarked) [Compound 640]: 0
- O=C1NCC(c2cc(F)ccc2F)C1C(=O)Nc1ccccc1F (racemic) [Compound 544]: 0
